Tested on: Resistant strain of horn flies (Haematobia irritans)
Experiment: treated filterpaper-tarsal contact 24 hour bioassay, resistant horn flies, with resistance factor (Example 2)
Format: in vivo
Conditions: Table II
OBSERVABLE: RF (resistance factor; Resistant LC50 ÷ Susceptible LC50)

                                   compound  measurement
0  CCOCn1c(-c2ccc(Cl)cc2)c(C#N)c(Br)c1C(F)(F)F [Compound A]         0.23
1  CCOCn1c(-c2ccc(Cl)cc2)c(C#N)c(Cl)c1C(F)(F)F [Compound D]        0.123
2  CC1(C)C(C=C(Cl)Cl)C1C(=O)OCc1cccc(Oc2ccccc2)c1 (stereo not shown) [Compound E, Permethrin, reference compound]         80.0

// below: RF (resistance factor; Resistant LC50 ÷ Susceptible LC50) requested for another compound
# get_value(readout='RF (resistance factor; Resistant LC50 ÷ Susceptible LC50)', item= N#Cc1c(-c2ccc(Cl)cc2)[nH]c(C(F)(F)F)c1Br [Compound C] )
0.088

----------
System: Resistant strain of horn flies (Haematobia irritans)
Test: treated filterpaper-tarsal contact 24 hour bioassay, resistant horn flies, with resistance factor (Example 2)
Type: in vivo
Conditions: Table II, resistant horn flies
OBSERVABLE: Resistant LC50
# answer = value followed by unit

>>> print(df.to_string())
                                   molecule      observable    measurement
0  N#Cc1c(-c2ccc(Cl)cc2)[nH]c(C(F)(F)F)c1Br  Resistant LC50  1.877 μg/cm^2
1  CCOCn1c(-c2ccc(Cl)cc2)c(C#N)c(Cl)c1C(F)(F)F  Resistant LC50  1.066 μg/cm^2
2  CC1(C)C(C=C(Cl)Cl)C1C(=O)OCc1cccc(Oc2ccccc2)c1 (stereo not shown) [Compound E, Permethrin, reference compound]  Resistant LC50   8.16 μg/cm^2

// below: Resistant LC50 requested for another molecule
Observed Resistant LC50 on Resistant strain of horn flies (Haematobia irritans) for CCOCn1c(-c2ccc(Cl)cc2)c(C#N)c(Br)c1C(F)(F)F , please.
0.391 μg/cm^2
